quantity: melting point

Some molecules with recorded melting point:
{"columns": ["chemSmiles", "endpointResult"],
 "data": [
  ["CCN(CC)C(=O)c1cnn(C)c1C(=O)Nc1ccn2nc(N3CCOCC3)nc2c1", "165 to 167 °C"],
  ["Cn1ncc(C(=O)N2CCCC2)c1C(=O)Nc1cc2nc(-c3ccccc3)nn2cc1F", "250 to 251 °C"],
  ["Cn1ncc(C(=O)N2CCCC2)c1C(=O)Nc1ccn2nc(-c3cccnc3)nc2c1", "226 to 228 °C"]
]}

Here is another molecule to look at.
response.value for `COCCN(C)C(=O)c1cnn(C)c1C(=O)Nc1ccn2nc(-c3ccccc3)nc2c1` (field: melting point) = 172 to 175 °C

---

Parameter melting point: see the listing below.

Some compounds with recorded melting point:
{"columns": ["compound", "endpointResult"],
 "data": [
  ["Cn1ncc(C(=O)NC2COC2)c1C(=O)Nc1ccn2nc(-c3ccccc3)nc2c1 [Example 17]", "> 250 °C"],
  ["CN(C)c1nc2cc(NC(=O)c3c(C(=O)N4CCC4)cnn3C)ccn2n1 [Example 35]", "240 to 241 °C"],
  ["Cn1ncc(C(=O)N2CCC2)c1C(=O)Nc1ccn2nc(-c3cccc(F)c3)nc2c1 [Example 105]", "232 to 236 °C"]
]}

response.value for CCOC(=O)c1cnn(C)c1C(=O)Nc1ccn2nc(-c3ccccc3)nc2c1 [Example 28] (field: melting point) = 242 to 243 °C

response.value for CN(C)C(=O)c1cnn(C)c1C(=O)Nc1ccn2nc(N(C)CCF)nc2c1 [Example 72] (field: melting point) = 203 to 204 °C

response.value for COc1ccccc1-c1nc2cc(NC(=O)c3c(C(=O)N(C)C4CC4)cnn3C)ccn2n1 [Example 103] (field: melting point) = 239.2 °C

response.value for CC(C)c1nc2cc(NC(=O)c3c(C(=O)N4CC(F)C4)cnn3C)ccn2n1 [Example 51] (field: melting point) = 226 to 227 °C

response.value for CCN(C)C(=O)c1cnn(C)c1C(=O)Nc1ccn2nc(N(C)CCF)nc2c1 [Example 73] (field: melting point) = 145 to 147 °C

---

Entries with their measured pIC50, system UniProtKB Q9Y233:
pIC50: −log10 of the molar value.
quantity: pIC50

{"columns": ["compound", "endpointResult"],
 "data": [
  ["CCN(C)C(=O)c1cnn(C)c1C(=O)Nc1ccn2nc(N3CCCC3)nc2c1 [Example 124]", 9.07]
]}

I = Cn1ncc(C(=O)N2CCOCC2)c1C(=O)Nc1ccn2nc(-c3cccc(OCCF)c3)nc2c1 [Example 81]
II = Cn1ncc(C(=O)N2CCC2)c1C(=O)Nc1ccn2nc(-c3ccncc3)nc2c1 [Example 66]
Which numeric pIC50 is bigger, that of I or that of II ? # answer = label of selected item
I
(I: 9.23, II: 8.74)

---

pIC50: −log10 of the molar value.
Entries with their measured pIC50, system human PDE10A full length (Homo sapiens, UniProt Q9Y233):
quantity: pIC50

a = CN(C(=O)c1cnn(C)c1C(=O)Nc1ccn2nc(N3CCOCC3)nc2c1)C1CC1
b = Cn1ncc(C(=O)N2CC3(COC3)C2)c1C(=O)Nc1ccn2nc(N3CCCC3)nc2c1
c = COc1ccccc1-c1nc2cc(NC(=O)c3c(C(=O)N(C)C4CC4)cnn3C)ccn2n1
Sort (3 compounds) by pIC50: min first. Write the labels out in the order the request specifies.
b, a, c

---

pIC50: −log10 of the molar value.
Entries with their measured pIC50, system human PDE10A full length (Homo sapiens, UniProt Q9Y233):
quantity: pIC50

{"columns": ["compound", "endpointResult"],
 "data": [
  ["CN(C(=O)c1cnn(C)c1C(=O)Nc1ccn2nc(-c3ccccc3)nc2c1)C1CC1 [Example 48]", 9.01],
  ["Cn1ncc(C(=O)N2CCOCC2)c1C(=O)Nc1ccn2nc(-c3cccc(OCF)c3)nc2c1 [Example 82]", 9.11],
  ["COc1ccccc1-c1nc2cc(NC(=O)c3c(C(=O)N4CCC4)cnn3C)ccn2n1 [Example 102]", 9.19]
]}
